Listed molecules paired with reported Maximum O.D.
System: affinity purified β2GPI-dependent antiphospholipid antibody
method.notes: Direct binding ELISA, nickel chelate-coated wells charged with recombinant β2GPI proteins (no cardiolipin)
Set-up: species or system human
condition.details: Ab 6632; O.D. at 550 nm
// no unit, no text: just the number

Solved entries (count: 5):
Incoming: Return reported Maximum O.D.. Input molecule: -2345: recombinant β2GPI deletion mutant with domains 2-5 (protein) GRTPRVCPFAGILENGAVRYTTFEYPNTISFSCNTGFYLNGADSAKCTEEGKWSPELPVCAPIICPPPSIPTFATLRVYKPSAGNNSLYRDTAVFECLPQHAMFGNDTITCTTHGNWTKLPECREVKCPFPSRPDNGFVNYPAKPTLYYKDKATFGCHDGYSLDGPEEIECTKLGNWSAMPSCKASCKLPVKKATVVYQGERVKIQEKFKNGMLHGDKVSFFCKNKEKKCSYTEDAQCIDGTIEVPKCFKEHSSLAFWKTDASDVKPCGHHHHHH
Outgoing: 0.031

Incoming: Fill in Maximum O.D. for record 1----: recombinant β2GPI protein with domain 1 only (SEQ ID NO:4 region), His6 tail (protein) GRTCPKPDDLPFSTVVPLKTFYEPGEEITYSCKPGYVSRGGMRKFICPLTGLWPINTLKCTPRVGHHHHHH
Outgoing: 0.351

Incoming: In one line, give reported Maximum O.D. of the entry 1234-: recombinant β2GPI deletion mutant with domains 1, 2, 3, 4 (protein) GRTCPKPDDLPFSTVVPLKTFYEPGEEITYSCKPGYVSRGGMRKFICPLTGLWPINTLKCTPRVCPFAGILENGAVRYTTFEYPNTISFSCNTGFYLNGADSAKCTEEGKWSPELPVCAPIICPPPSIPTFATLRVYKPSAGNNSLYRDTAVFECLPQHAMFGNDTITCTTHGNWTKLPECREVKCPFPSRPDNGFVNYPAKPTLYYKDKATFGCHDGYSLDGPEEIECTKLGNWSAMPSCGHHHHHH .
Outgoing: 0.003

Incoming: Return value of Maximum O.D. for input 12---: recombinant β2GPI deletion mutant with domains 1 and 2 (protein) GRTCPKPDDLPFSTVVPLKTFYEPGEEITYSCKPGYVSRGGMRKFICPLTGLWPINTLKCTPRVCPFAGILENGAVRYTTFEYPNTISFSCNTGFYLNGADSAKCTEEGKWSPELPVCAPIIGHHHHHH , no commentary.
Outgoing: 0.016

Incoming: Respond only with Maximum O.D. recorded for ---45: recombinant β2GPI deletion mutant with domains 4, 5 (protein) GREVKCPFPSRPDNGFVNYPAKPTLYYKDKATFGCHDGYSLDGPEEIECTKLGNWSAMPSCKASCKLPVKKATVVYQGERVKIQEKFKNGMLHGDKVSFFCKNKEKKCSYTEDAQCIDGTIEVPKCFKEHSSLAFWKTDASDVKPCGHHHHHH
Outgoing: 0.000

Next:
Incoming: Provide one value: measured Maximum O.D. of recombinant β2GPI domain 5 with GlyHis6 (----5) (protein) GRASCKLPVKKATVVYQGERVKIQEKFKNGMLHGDKVSFFCKNKEKKCSYTEDAQCIDGTIEVPKCFKEHSSLAFWKTDASDVKPCGHHHHHH
Outgoing: 0.013

Incoming: Read the entry 123--: recombinant β2GPI deletion mutant with domains 1, 2, 3 (protein) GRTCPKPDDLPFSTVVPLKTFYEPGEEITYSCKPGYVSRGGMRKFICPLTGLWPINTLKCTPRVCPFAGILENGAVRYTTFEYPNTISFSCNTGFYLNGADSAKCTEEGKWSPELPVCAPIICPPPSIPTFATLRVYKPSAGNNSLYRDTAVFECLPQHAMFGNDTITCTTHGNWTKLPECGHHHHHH and write its reported Maximum O.D..
Outgoing: 0.121

Incoming: Read off the recorded Maximum O.D. for --345: recombinant β2GPI deletion mutant with domains 3, 4, 5 (protein) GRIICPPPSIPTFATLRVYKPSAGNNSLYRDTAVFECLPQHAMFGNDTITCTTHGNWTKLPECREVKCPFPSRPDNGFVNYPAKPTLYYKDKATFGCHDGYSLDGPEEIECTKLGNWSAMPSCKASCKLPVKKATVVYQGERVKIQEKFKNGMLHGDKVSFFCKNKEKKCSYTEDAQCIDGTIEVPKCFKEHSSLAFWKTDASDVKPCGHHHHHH
Outgoing: 0.004
